test system: Trypanosoma brucei Lister 427 strain, bloodstream form; assay: Assay for proliferation of kinetoplastid parasite Trypanosoma brucei (Cell Titer Glo, 48 hours); type: cell-based; details: Trypanosoma brucei, T. brucei Lister 427 bloodstream form; read-out: T. brucei EC50
In this section we review reported pEC50 values for a set of molecules.
pEC50 here: minus log base 10 of the concentration, concentration in moles per litre.

Example cases with answers are listed next.
[[record]]
structure = "CCCC(=O)OCN(C(=O)OC(C)C)c1cnc2nc(-c3cc(NC(=O)c4oc(C)nc4C)ccc3F)cn2c1"
system = "Trypanosoma brucei Lister 427 strain, bloodstream form"
outcome_measure = "pEC50"
result = 7.15

[[record]]
structure = "Cc1nc(C)c(C(=O)Nc2ccc(F)c(-c3cn4cc(-c5ccc(F)cc5)cnc4n3)c2)o1"
system = "Trypanosoma brucei Lister 427 strain, bloodstream form"
outcome_measure = "pEC50"
result = 7.38

[[record]]
structure = "O=C(Nc1ccc(F)c(-c2cn3cc(-c4cccnc4)cnc3n2)c1)N1CC[C@@H](F)C1"
system = "Trypanosoma brucei Lister 427 strain, bloodstream form"
outcome_measure = "pEC50"
result = 7.74


Now for another entry.
Task: Can you look up the measured pEC50 of COCCN1CCC(c2cnc3nc(-c4cc(NC(=O)c5oc(C)nc5C)ccc4F)cn3c2)CC1 for me?
Result: 6.06

====

system: L. donovani HU3 strain in mouse peritoneal macrophages; assay: Assay for proliferation of Leishmania parasites in infected mouse peritoneal macrophages (SybrGreen staining, high-content imaging, 5 days); assay type: cell-based, Leishmania donovani; details: Leishmania donovani, Peritoneal macrophage, L. donovani in mouse peritoneal macrophages, inhibition of proliferation; read-out: L. donovani Macrophage EC50
outcome measure: EC50 (nM)
Give the quantity in nM, number only.

[[record]]
molecule = "CC(C)OC(=O)Nc1cnc2nc(-c3cc(NC(=O)N4CC(F)C4)ccc3Cl)cn2c1"
system = "L. donovani HU3 strain in mouse peritoneal macrophages"
outcome_measure = "EC50"
unit_symbol = "nM"
result = 724

[[record]]
molecule = "CC(C)OC(=O)Nc1cnc2nc(-c3cc(NC(=O)N4CCCC4)ccc3Cl)cn2c1"
system = "L. donovani HU3 strain in mouse peritoneal macrophages"
outcome_measure = "EC50"
unit_symbol = "nM"
result = 268

[[record]]
molecule = "COCCOC(=O)Nc1ccc(Cl)c(-c2cn3cc(-c4ccc(NC(=O)OC)cc4)cnc3n2)c1"
system = "L. donovani HU3 strain in mouse peritoneal macrophages"
outcome_measure = "EC50"
unit_symbol = "nM"
result = 330

[[record]]
molecule = "CC(C)OC(=O)Nc1cnc2nc(-c3cc(NC(=O)c4ccnn4C)ccc3F)cn2c1"
system = "L. donovani HU3 strain in mouse peritoneal macrophages"
outcome_measure = "EC50"
unit_symbol = "nM"
result = 3890

[[record]]
molecule = "Cc1nc(C)c(C(=O)Nc2ccc(F)c(-c3cn4cc(-c5ccccc5)cnc4n3)c2)o1"
system = "L. donovani HU3 strain in mouse peritoneal macrophages"
outcome_measure = "EC50"
unit_symbol = "nM"
result = 87


Task: Can you look up the measured EC50 of CCN(C)C(=O)Nc1cccc(-c2cn3cc(NC(=O)OC(C)C)cnc3n2)c1 for me?
Result: 9200

Task: Can you look up the measured EC50 of CC(C)OC(=O)Nc1cnc2nc(-c3cc(NC(=O)N4CC(F)C4)ccc3F)cn2c1 for me?
Result: 402

Task: Can you look up the measured EC50 of CC(C)OC(=O)Nc1cnc2nc(-c3cccc(NC(=O)c4ccc(F)o4)c3)cn2c1 for me?
Result: 430

Task: Can you look up the measured EC50 of CCOC(=O)Nc1cnc2nc(-c3cc(NC(=O)c4oc(C)nc4C)ccc3F)cn2c1 for me?
Result: 269

Task: Can you look up the measured EC50 of CC(C)OC(=O)Nc1ccc(F)c(-c2cn3cc(-c4ccccc4)cnc3n2)c1 for me?
Result: 360

Task: Can you look up the measured EC50 of Cc1nc(C)c(C(=O)Nc2ccc(F)c(-c3cn4cc(NC(=O)C5CN(C(=O)OC(C)(C)C)CCCO5)cnc4n3)c2)o1 (centres unmarked) for me?
Result: 578

Task: Can you look up the measured EC50 of CC(C)OC(=O)Nc1cnc2nc(-c3cc(NC(=O)N4CCCC4c4ccccn4)ccc3Cl)cn2c1 (centres unmarked) for me?
Result: 23700

Task: Can you look up the measured EC50 of Cc1nc(C)c(C(=O)Nc2ccc(F)c(-c3cn4cc(-c5cnccn5)cnc4n3)c2)o1 for me?
Result: 85

Task: Can you look up the measured EC50 of Cc1nc(C)c(C(=O)Nc2ccc(F)c(-c3cn4cc(NC(=O)C5(C)CCCCO5)cnc4n3)c2)o1 (centres unmarked) for me?
Result: 887

Task: Can you look up the measured EC50 of CC(C)OC(=O)Nc1cnc2nc(-c3cc(NC(=O)c4ncco4)ccc3F)cn2c1 for me?
Result: 9920

Task: Can you look up the measured EC50 of CC(C)OC(=O)Nc1cnc2nc(-c3cc(NC(=O)[C@@H](N)c4ccccc4)ccc3F)cn2c1 for me?
Result: 9910

Task: Can you look up the measured EC50 of COCCOC(=O)Nc1ccc(Cl)c(-c2cn3cc(-c4ccsc4)cnc3n2)c1 for me?
Result: 750

Task: Can you look up the measured EC50 of O=C(Nc1ccc(Cl)c(-c2nc3ncc(-c4ccccc4)cn3c2F)c1)N1CCCC1 for me?
Result: 180

Task: Can you look up the measured EC50 of Cc1ncc(C(=O)Nc2ccc(F)c(-c3cn4cc(C5CCC5)cnc4n3)c2)o1 for me?
Result: 55

Task: Can you look up the measured EC50 of CC(C)OC(=O)Nc1cnc2nc(-c3cc(NC(=O)N4CCC(F)(F)C4)ccc3Cl)cn2c1 for me?
Result: 2220

Task: Can you look up the measured EC50 of CCOC(=O)Nc1cccc(-c2cn3cc(NC(=O)OC(C)C)cnc3n2)c1 for me?
Result: 2360

Task: Can you look up the measured EC50 of CC(C)OC(=O)Nc1cnc2nc(-c3cc(NC(=O)c4cncs4)ccc3F)cn2c1 for me?
Result: 7580

====

system: Trypanosoma cruzi amastigotes (Tulahuen strain expressing Lac-Z) cultured in 3T3 fibroblast cells; assay: microbe, parasite or virus in culture; type: cell-based; details: Trypanosoma cruzi, TULAHUEN, Fibroblast, T. cruzi amastigotes in 3T3 fibroblast cells; read-out: T cruzi EC50
outcome measure: pEC50
pEC50 here: minus log base 10 of the concentration, concentration in moles per litre.

[[record]]
molecule = "CC(C)OC(=O)Nc1cnc2nc(-c3cc(Nc4ccccn4)ccc3F)cn2c1"
outcome_measure = "pEC50"
result = 6.44

[[record]]
molecule = "Cc1nc(C)c(C(=O)Nc2ccc(F)c(-c3cn4cc(-c5cncc(F)c5)cnc4n3)c2)o1"
outcome_measure = "pEC50"
result = 6.99


Task: Can you look up the measured pEC50 of Cc1nc(C)c(C(=O)Nc2ccc(F)c(-c3cn4cc(-c5cncc(C(C)C)c5)cnc4n3)c2)o1 for me?
Result: 6.84

====

test system: Trypanosoma cruzi amastigotes (Tulahuen strain expressing Lac-Z) cultured in 3T3 fibroblast cells; assay: microbe, parasite or virus in culture; type: cell-based; conditions: Trypanosoma cruzi, TULAHUEN, Fibroblast, T. cruzi amastigotes in 3T3 fibroblast cells; read-out: T cruzi EC50
outcome measure: pEC50
pEC50 here: minus log base 10 of the concentration, concentration in moles per litre.

Example cases with answers are listed next.
[[record]]
compound = "Cc1nc(C)c(C(=O)Nc2ccc(F)c(-c3cn4cc(NC5=N[C@@H]6CCC[C@H]6O5)cnc4n3)c2)o1"
result = 5.43

[[record]]
compound = "Cc1nc(C)c(C(=O)Nc2ccc(F)c(-c3cn4cc(-c5cccc(F)n5)cnc4n3)c2)o1"
result = 7.38

[[record]]
compound = "CC1COC(Nc2ccc(F)c(-c3cn4cc(NC(=O)OC(C)C)cnc4n3)c2)=N1 (centres unmarked)"
result = 4.96

[[record]]
compound = "COc1cnc2nc(-c3cc(NC(=O)N4CCCC4)ccc3F)cn2c1"
result = 6.82

[[record]]
compound = "Cc1nc(C)c(C(=O)Nc2ccc(F)c(-c3cn4cc(NC5=NC(C)(C)CO5)cnc4n3)c2)o1"
result = 5.30

[[record]]
compound = "Cc1nc(C)c(C(=O)Nc2ccc(F)c(-c3cn4cc(NCC(C)C)cnc4n3)c2)o1"
result = 6.79


Task: Can you look up the measured pEC50 of O=C(Nc1ccc(F)c(-c2cn3cc(-c4cccnc4)cnc3n2)c1)N1CC(F)C1 for me?
Result: 6.35

Task: Can you look up the measured pEC50 of O=C(Nc1ccc(F)c(-c2cn3cc(-c4cccnc4)cnc3n2)c1)N1CC[C@@H](F)C1 for me?
Result: 6.63

====

tested on: Trypanosoma brucei Lister 427 strain, bloodstream form; assay: Assay for proliferation of kinetoplastid parasite Trypanosoma brucei (Cell Titer Glo, 48 hours); format: cell-based; details: Trypanosoma brucei, T. brucei Lister 427 bloodstream form; read-out: T. brucei EC50
outcome measure: EC50 (nM)
Give the quantity in nM, number only.

Example cases with answers are listed next.
[[record]]
compound = "Cc1nc(C)c(C(=O)Nc2ccc(F)c(-c3cn4cc(NCC(C)(C)C)cnc4n3)c2)o1 [Compound 465]"
result = 153

[[record]]
compound = "[2H]C([2H])([2H])N(C(=O)Nc1ccc(F)c(-c2cn3cc(C4CC4)cnc3n2)c1)C([2H])([2H])[2H] [Compound 606]"
result = 267

[[record]]
compound = "Cc1ncc(C(=O)Nc2ccc(F)c(-c3cn4cc(N(C)C)cnc4n3)c2)o1 [Compound 467]"
result = 166


Now for another entry.
Task: Please tell me: EC50 of COC1CCC(C(=O)Nc2ccc(F)c(-c3cn4cc(C5CC5)cnc4n3)c2)CC1 (stereo not shown) [Compound 597] , system Trypanosoma brucei Lister 427 strain, bloodstream form?
Result: 31400
